experiment: Cytotoxicity against MDCK cells assessed as reduction in cell viability after 3 days by MTS assay
Type: cell-based, Canis lupus familiaris
study-conditions: dog, MDCK cells

>  <molecule>
CC(=O)N[C@H]1[C@H](O[C@@H]2c3ccc(c(Cl)c3)Oc3cc4cc(c3O)Oc3ccc(cc3Cl)C[C@H]3NC(=O)[C@H](n5cc(COc6ccccc6)nn5)c5ccc(O)c(c5)Oc5cc(O)cc(c5)[C@H](NC3=O)C(=O)N[C@H]4C(O)N[C@H]3C(=O)N[C@H]2C(=O)N[C@@H](C(=O)O)c2cc(O)cc(O)c2-c2cc3ccc2O)O[C@H](CO)[C@@H](O)[C@@H]1O (stereo partly specified)

>  <CC50 at 72 h>
41 µM

$$$$
>  <molecule>
CC(=O)N[C@H]1[C@H](O[C@@H]2c3ccc(c(Cl)c3)Oc3cc4cc(c3O)Oc3ccc(cc3Cl)C[C@H]3NC(=O)[C@H](n5cc(CCOc6c7cc(C(C)(C)C)cc6Cc6cc(C(C)(C)C)cc(c6O)Cc6cc(C(C)(C)C)cc(c6O)Cc6cc(C(C)(C)C)cc(c6O)C7)nn5)c5ccc(O)c(c5)Oc5cc(O)cc(c5)[C@H](NC3=O)C(=O)N[C@H]4C(O)N[C@H]3C(=O)N[C@H]2C(=O)N[C@@H](C(=O)O)c2cc(O)cc(O)c2-c2cc3ccc2O)O[C@H](CO)[C@@H](O)[C@@H]1O (stereo partly specified)

>  <CC50 at 72 h>
≥ 58 µM

$$$$
>  <molecule>
CCCCCCCCCCOCc1cn([C@H]2C(=O)N[C@@H]3Cc4ccc(c(Cl)c4)Oc4cc5cc(c4O)Oc4ccc(cc4Cl)[C@@H](O[C@@H]4O[C@H](CO)[C@@H](O)[C@H](O)[C@H]4NC(C)=O)[C@H]4NC(=O)[C@H](NC(O)[C@@H]5NC(=O)[C@@H](NC3=O)c3cc(O)cc(c3)Oc3cc2ccc3O)c2ccc(O)c(c2)-c2c(O)cc(O)cc2[C@H](C(=O)O)NC4=O)nn1 (stereo partly specified)

>  <CC50 at 72 h>
3.7 µM

$$$$
>  <molecule>
CCCCCCCCCCCCOCc1cn([C@H]2C(=O)N[C@@H]3Cc4ccc(c(Cl)c4)Oc4cc5cc(c4O)Oc4ccc(cc4Cl)[C@@H](O[C@@H]4O[C@H](CO)[C@@H](O)[C@H](O)[C@H]4NC(C)=O)[C@H]4NC(=O)[C@H](NC(O)[C@@H]5NC(=O)[C@@H](NC3=O)c3cc(O)cc(c3)Oc3cc2ccc3O)c2ccc(O)c(c2)-c2c(O)cc(O)cc2[C@H](C(=O)O)NC4=O)nn1 (stereo partly specified)

>  <CC50 at 72 h>
2.3 µM

$$$$
>  <molecule>
CCCCCCCCO[C@@H]1[C@@H](OCCCCCCCC)[C@@H](OC)O[C@H](COCCOCCOCCOCCOCc2cn([C@H]3C(=O)N[C@@H]4Cc5ccc(c(Cl)c5)Oc5cc6cc(c5O)Oc5ccc(cc5Cl)[C@@H](O[C@@H]5O[C@H](CO)[C@@H](O)[C@H](O)[C@H]5NC(C)=O)[C@H]5NC(=O)[C@H](NC(O)[C@@H]6NC(=O)[C@@H](NC4=O)c4cc(O)cc(c4)Oc4cc3ccc4O)c3ccc(O)c(c3)-c3c(O)cc(O)cc3[C@H](C(=O)O)NC5=O)nn2)[C@H]1OCc1ccc(OC)cc1 (stereo partly specified)

>  <CC50 at 72 h>
11 µM

$$$$
>  <molecule>
CCCCCCCCOCc1cn([C@H]2C(=O)N[C@@H]3Cc4ccc(c(Cl)c4)Oc4cc5cc(c4O)Oc4ccc(cc4Cl)[C@@H](O[C@@H]4O[C@H](CO)[C@@H](O)[C@H](O)[C@H]4NC(C)=O)[C@H]4NC(=O)[C@H](NC(O)[C@@H]5NC(=O)[C@@H](NC3=O)c3cc(O)cc(c3)Oc3cc2ccc3O)c2ccc(O)c(c2)-c2c(O)cc(O)cc2[C@H](C(=O)O)NC4=O)nn1 (stereo partly specified)

>  <CC50 at 72 h>
13 µM

$$$$
